Numbers sourced from patent US20240360165A1.

List of pIC50 values.
# systemName: CDK9/Cyclin T1 complex (Homo sapiens, UniProt P50750)
# Sequence (P50750 whole entry, species assumed): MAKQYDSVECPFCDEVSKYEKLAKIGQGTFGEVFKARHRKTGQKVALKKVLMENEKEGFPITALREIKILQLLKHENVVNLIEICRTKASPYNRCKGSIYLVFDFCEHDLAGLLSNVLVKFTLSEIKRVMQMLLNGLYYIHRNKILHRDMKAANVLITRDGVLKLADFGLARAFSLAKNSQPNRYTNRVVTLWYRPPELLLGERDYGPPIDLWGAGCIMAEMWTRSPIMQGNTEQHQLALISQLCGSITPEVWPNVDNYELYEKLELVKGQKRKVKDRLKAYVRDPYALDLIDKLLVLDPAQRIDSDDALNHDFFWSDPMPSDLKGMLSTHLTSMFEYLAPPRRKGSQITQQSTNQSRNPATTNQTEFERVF
# Sequence (O60563 whole entry partner, species assumed): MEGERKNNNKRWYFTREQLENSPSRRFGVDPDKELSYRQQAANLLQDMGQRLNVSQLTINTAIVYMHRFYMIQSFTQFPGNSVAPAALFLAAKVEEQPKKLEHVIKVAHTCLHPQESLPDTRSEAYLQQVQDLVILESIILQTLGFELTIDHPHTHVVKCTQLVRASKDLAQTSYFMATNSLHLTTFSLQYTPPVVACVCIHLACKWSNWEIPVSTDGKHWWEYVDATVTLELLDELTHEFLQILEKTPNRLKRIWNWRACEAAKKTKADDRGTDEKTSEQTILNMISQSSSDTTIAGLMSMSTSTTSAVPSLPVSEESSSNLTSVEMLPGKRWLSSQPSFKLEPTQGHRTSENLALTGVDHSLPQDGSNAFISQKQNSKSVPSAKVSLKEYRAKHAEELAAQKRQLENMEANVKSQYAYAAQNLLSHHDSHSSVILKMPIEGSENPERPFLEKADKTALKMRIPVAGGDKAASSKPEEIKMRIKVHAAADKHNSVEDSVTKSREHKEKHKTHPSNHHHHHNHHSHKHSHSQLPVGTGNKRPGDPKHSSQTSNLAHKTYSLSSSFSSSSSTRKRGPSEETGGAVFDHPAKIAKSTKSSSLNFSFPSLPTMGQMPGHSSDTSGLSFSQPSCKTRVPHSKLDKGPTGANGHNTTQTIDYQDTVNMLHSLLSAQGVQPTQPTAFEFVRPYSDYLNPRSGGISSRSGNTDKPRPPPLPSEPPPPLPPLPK
# assayExplanation: CDK9 inhibition assay (Caliper/LabChip EZ Reader kinase assay)
# Type: biochemical
# details: Table 1; CDK9/Cyclin T1 8 nM, ATP 2 mM, 15 min at 27° C.
pIC50: −log10 of the molar value.

- compound: "O=C(O)c1ccc2c(-c3nc(N[C@H]4CCCNC4)ncc3C(F)(F)F)c[nH]c2c1 [Compound 306]"
  pIC50: "< 5.30"
- compound: "OCc1ncccc1-c1ccc2c(-c3nc(N[C@H]4CCCNC4)ncc3C(F)(F)F)c[nH]c2c1 [Compound 323]"
  pIC50: "< 5.30"
- compound: "CP(C)(=O)c1cccc2c(-c3nc(N[C@H]4CCCNC4)ncc3C(F)(F)F)c[nH]c12 (single isomer, unassigned) [Compound 353]"
  pIC50: "< 5.30"
- compound: "CCc1cnc(N[C@H]2CCCNC2)nc1-c1c[nH]c2c(S(=O)O)cccc12 [Compound 363]"
  pIC50: "< 5.30"
- compound: "c1ccc2c(-c3nc(N[C@H]4CCCNC4)ncc3C3CC3)c[nH]c2c1 [Compound 135]"
  pIC50: "< 5.30"
- compound: "O=C(c1ccc2c(-c3nc(N[C@H]4CCCNC4)ncc3C(F)(F)F)c[nH]c2c1)N1CC[C@H](O)C1 [Compound 204]"
  pIC50: "< 5.30"
- compound: "FC(F)n1ccc(-c2ccc3c(-c4nc(N[C@H]5CCCNC5)ncc4C(F)(F)F)c[nH]c3c2)n1 [Compound 289]"
  pIC50: "5.30 to 6.70"
- compound: "CC1(C)CNC[C@@H](Nc2ncc(C(F)(F)F)c(-c3c[nH]c4ccccc34)n2)C1 [Compound 243]"
  pIC50: "5.30 to 6.70"
- compound: "CC(=O)c1ccc2c(-c3nc(N[C@H]4CCCNC4)ncc3C(F)(F)F)c[nH]c2c1 [Compound 359]"
  pIC50: "5.30 to 6.70"
- compound: "CC1(C)CCNC[C@H]1Nc1ncc(C(F)(F)F)c(-c2c[nH]c3ccccc23)n1 (single isomer, unassigned) [Compound 210]"
  pIC50: "< 5.30"
- compound: "N#Cc1ccc2c(-c3nc(N[C@H]4CCCNC4)ncc3SC(F)F)c[nH]c2c1 [Compound 361]"
  pIC50: "5.30 to 6.70"
- compound: "CC(C)(O)CCc1cccc2c(-c3nc(N[C@H]4CCCNC4)ncc3C(F)(F)F)c[nH]c12 [Compound 191]"
  pIC50: "5.30 to 6.70"
- compound: "Cn1cc(-c2nc(N[C@H]3CCCNC3)ncc2C(F)(F)F)c2cccc(S(C)(=O)=O)c21 [Compound 296]"
  pIC50: "< 5.30"
- compound: "FC(F)(F)c1cnc(N[C@H]2CCCNC2)nc1-c1c[nH]c2c(-c3cn[nH]c3)cccc12 [Compound 170]"
  pIC50: "5.30 to 6.70"
- compound: "Cc1nn(C)cc1-c1ccc2c(-c3nc(N[C@H]4CCCNC4)ncc3C(F)(F)F)c[nH]c2c1 [Compound 226]"
  pIC50: "5.30 to 6.70"
- compound: "CC(C)C1CCC(Nc2ncc(C(F)(F)F)c(-c3c[nH]c4ccccc34)n2)CN1 (stereo not shown) [Compound 260]"
  pIC50: "< 5.30"

====

Measured pIC50 values are reported for all entries that follow.
# systemName: CDK2/Cyclin E1 complex (Homo sapiens, UniProt P24941)
# assayExplanation: CDK2 inhibition assay (Caliper/LabChip EZ Reader kinase assay)
# Assay type: biochemical
# details: Table 1; CDK2/Cyclin E1 0.5 nM, ATP 2 mM, 35 min at 27° C.
pIC50: −log10 of the molar value.
observedProperty: pIC50

- molecule: "Cc1ccncc1-c1ccc2c(-c3nc(NC4CCCNC4)ncc3C(F)(F)F)c[nH]c2c1 (stereo not drawn)"
  observedProperty: "pIC50"
  result: "5.30 to 6.70"
- molecule: "O=C(C1CCC(Nc2ncc(C(F)(F)F)c(-c3c[nH]c4ccccc34)n2)CN1)N1CCC(O)C1 (mixture of isomers) [Compound 250]"
  observedProperty: "pIC50"
  result: "5.30 to 6.70"
- molecule: "FC(F)(F)c1cnc(N[C@H]2CCCNC2)nc1-c1c[nH]c2cc(-c3cccc4cnccc34)ccc12"
  observedProperty: "pIC50"
  result: "5.30 to 6.70"
- molecule: "O=C(c1cccc(-c2ccc3c(-c4nc(N[C@H]5CCCNC5)ncc4C(F)(F)F)c[nH]c3c2)c1)N1CCCC1"
  observedProperty: "pIC50"
  result: "5.30 to 6.70"
- molecule: "N#Cc1ccc2c(-c3nc(N[C@H]4CCCNC4)ncc3C(F)(F)F)c[nH]c2n1"
  observedProperty: "pIC50"
  result: "5.30 to 6.70"
- molecule: "CC1(C)CC[C@H](Nc2ncc(C(F)(F)F)c(-c3c[nH]c4cc(C#N)ccc34)n2)CN1"
  observedProperty: "pIC50"
  result: "< 5.30"
- molecule: "Cn1cc(-c2ccc3c(-c4nc(NC5CCCNC5)ncc4C(F)(F)F)c[nH]c3c2)ccc1=O (stereo not drawn)"
  observedProperty: "pIC50"
  result: "< 5.30"
- molecule: "C#Cc1cnc(N[C@H]2CCCNC2)nc1-c1c[nH]c2ccccc12"
  observedProperty: "pIC50"
  result: "5.30 to 6.70"
- molecule: "OCc1cncc(-c2ccc3c(-c4nc(N[C@H]5CCCNC5)ncc4C(F)(F)F)c[nH]c3c2)c1"
  observedProperty: "pIC50"
  result: "5.30 to 6.70"
- molecule: "CC1(C)CC[C@H](Nc2ncc(C(F)(F)F)c(-c3c[nH]c4ccccc34)n2)CN1"
  observedProperty: "pIC50"
  result: "5.30 to 6.70"
- molecule: "O=C1CCN(C(=O)c2ccc3c(-c4nc(N[C@H]5CCCNC5)ncc4C(F)(F)F)c[nH]c3c2)C1"
  observedProperty: "pIC50"
  result: "5.30 to 6.70"
- molecule: "CC(=O)NCc1cccc(-c2ccc3c(-c4nc(N[C@H]5CCCNC5)ncc4C(F)(F)F)c[nH]c3c2)c1"
  observedProperty: "pIC50"
  result: "5.30 to 6.70"
- molecule: "FC1(F)CNC[C@@H](Nc2ncc(C(F)(F)F)c(-c3c[nH]c4ccccc34)n2)C1"
  observedProperty: "pIC50"
  result: "5.30 to 6.70"
- molecule: "COCCN1CCC[C@H](Nc2ncc(Cl)c(-c3c[nH]c4ccccc34)n2)C1"
  observedProperty: "pIC50"
  result: "5.30 to 6.70"
- molecule: "Clc1cnc(N[C@@H]2CN3CCC2CC3)nc1-c1c[nH]c2ccccc12"
  observedProperty: "pIC50"
  result: "< 5.30"

====

# systemName: CDK12 (aa686-1082)/Cyclin K complex (Homo sapiens, UniProt Q9NYV4)
# Construct: CDK12 (aa686-1082)/Cyclin K complex
# Sequence (Q9NYV4 686-1082, species assumed): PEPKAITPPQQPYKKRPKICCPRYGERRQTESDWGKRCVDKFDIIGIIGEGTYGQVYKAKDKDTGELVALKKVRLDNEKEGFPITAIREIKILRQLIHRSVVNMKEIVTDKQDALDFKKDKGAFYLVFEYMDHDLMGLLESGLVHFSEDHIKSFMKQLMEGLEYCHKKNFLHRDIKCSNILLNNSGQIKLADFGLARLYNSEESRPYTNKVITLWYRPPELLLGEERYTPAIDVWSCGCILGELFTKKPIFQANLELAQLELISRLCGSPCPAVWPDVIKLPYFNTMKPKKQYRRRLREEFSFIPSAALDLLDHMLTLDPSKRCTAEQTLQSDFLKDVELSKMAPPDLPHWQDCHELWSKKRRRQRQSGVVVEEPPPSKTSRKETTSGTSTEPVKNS
# Sequence (O75909 whole entry partner, species assumed, the tested form may be a part): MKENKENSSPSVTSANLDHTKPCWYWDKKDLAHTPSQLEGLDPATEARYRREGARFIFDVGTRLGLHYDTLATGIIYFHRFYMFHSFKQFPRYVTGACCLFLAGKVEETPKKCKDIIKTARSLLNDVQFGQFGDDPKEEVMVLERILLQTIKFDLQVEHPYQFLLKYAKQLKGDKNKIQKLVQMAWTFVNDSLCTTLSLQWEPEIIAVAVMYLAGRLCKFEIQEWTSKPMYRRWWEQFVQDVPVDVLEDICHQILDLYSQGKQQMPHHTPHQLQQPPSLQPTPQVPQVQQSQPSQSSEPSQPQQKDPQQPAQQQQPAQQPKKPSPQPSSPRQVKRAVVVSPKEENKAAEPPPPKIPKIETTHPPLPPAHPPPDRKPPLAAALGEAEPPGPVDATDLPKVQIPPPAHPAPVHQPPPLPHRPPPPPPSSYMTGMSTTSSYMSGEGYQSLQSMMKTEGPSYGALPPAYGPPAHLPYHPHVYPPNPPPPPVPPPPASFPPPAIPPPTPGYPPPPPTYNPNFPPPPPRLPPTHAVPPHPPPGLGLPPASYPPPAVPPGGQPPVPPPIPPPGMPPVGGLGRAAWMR
# assayExplanation: CDK12 inhibition assay (Caliper/LabChip EZ Reader kinase assay)
# Format: biochemical
# details: Table 1; CDK12 (aa686-1082)/Cyclin K 50 nM, ATP 2 mM, 3 hr at 27° C.

- compound: "COCn1cc(-c2nc(NC3CCCNC3)ncc2C(F)(F)F)c2ccc(C#N)nc21 (stereo not shown)"
  IC50: "> 5 µM"
- compound: "Cn1ncc2ccc(-c3ccc4c(-c5nc(N[C@H]6CCCNC6)ncc5C(F)(F)F)c[nH]c4c3)cc21"
  IC50: "0.2 to 5 µM"
- compound: "Nc1ncc2cccc(-c3ccc4c(-c5nc(N[C@H]6CCCNC6)ncc5C(F)(F)F)c[nH]c4c3)c2n1"
  IC50: "0.2 to 5 µM"
- compound: "FC(F)(F)c1cnc(N[C@H]2CCCNC2)nc1-c1c[nH]c2cc(-c3cc[nH]n3)ccc12"
  IC50: "0.2 to 5 µM"
- compound: "N#Cc1ccc2c(-c3nc(N[C@@H]4CNC[C@H](O)C4)ncc3C(F)(F)F)c[nH]c2c1"
  IC50: "0.2 to 5 µM"
- compound: "C#Cc1cnc(N[C@H]2CCCNC2)nc1-c1cn(C)c2ccccc12"
  IC50: "> 5 µM"
- compound: "O=C1CC[C@H](Nc2ncc(Cl)c(-c3c[nH]c4ccccc34)n2)CN1"
  IC50: "0.2 to 5 µM"
- compound: "CC(C)S(=O)(=O)c1ccc2c(-c3nc(N[C@H]4CCCNC4)ncc3C(F)(F)F)c[nH]c2c1"
  IC50: "0.2 to 5 µM"
- compound: "CC(C)C1CCC(Nc2ncc(C(F)(F)F)c(-c3c[nH]c4ccccc34)n2)CN1 (stereo not shown)"
  IC50: "0.2 to 5 µM"
- compound: "CCc1cnc(N[C@H]2CCCNC2)nc1-c1n[nH]c2nc(C#N)ccc12"
  IC50: "0.2 to 5 µM"
- compound: "N#Cc1ccc2c(-c3nc(N[C@@H]4CCC5(CCC5)NC4)ncc3C(F)(F)F)c[nH]c2c1 (single isomer, unassigned)"
  IC50: "0.2 to 5 µM"
- compound: "CC(C)(O)CCc1ccc2c(-c3nc(N[C@H]4CCCNC4)ncc3C(F)(F)F)c[nH]c2c1"
  IC50: "0.2 to 5 µM"
- compound: "N#C[C@@H]1CCN(C(=O)c2ccc3c(-c4nc(N[C@H]5CCCNC5)ncc4C(F)(F)F)c[nH]c3c2)C1"
  IC50: "0.2 to 5 µM"
- compound: "OCCc1cccc(-c2ccc3c(-c4nc(N[C@H]5CCCNC5)ncc4C(F)(F)F)c[nH]c3c2)c1"
  IC50: "0.2 to 5 µM"
- compound: "CNC(=O)C1CNCC(Nc2ncc(C(F)(F)F)c(-c3c[nH]c4ccccc34)n2)C1 (single isomer, unassigned) [Compound 253]"
  IC50: "0.02 to 0.2 µM"
- compound: "FC(F)(F)c1cnc(NC2C3CCC2NC3)nc1-c1c[nH]c2ccccc12 (stereo not shown)"
  IC50: "0.2 to 5 µM"
- compound: "O=C(c1ccc2c(-c3nc(N[C@H]4CCCNC4)ncc3C(F)(F)F)c[nH]c2c1)N1CC[C@H](O)C1"
  IC50: "0.2 to 5 µM"
- compound: "N#Cc1ccc2c(-c3nc(N[C@@H]4CNCC[C@H]4F)ncc3C(F)(F)F)c[nH]c2c1"
  IC50: "0.2 to 5 µM"
- compound: "OCc1cccc(-c2ccc3c(-c4nc(N[C@H]5CCCNC5)ncc4C(F)(F)F)c[nH]c3c2)n1"
  IC50: "0.2 to 5 µM"
- compound: "Cc1cn(-c2cccc3c(-c4nc(N[C@H]5CCCNC5)ncc4C(F)(F)F)c[nH]c23)cn1"
  IC50: "0.2 to 5 µM"
- compound: "CNC(=O)C1CNCC(Nc2ncc(C(F)(F)F)c(-c3c[nH]c4ccccc34)n2)C1 (single isomer, unassigned) [Compound 252]"
  IC50: "> 5 µM"
- compound: "FC(F)(F)c1cnc(N[C@H]2CCCNC2)nc1-c1c[nH]c2c(-c3ccnnc3)cccc12"
  IC50: "0.02 to 0.2 µM"
- compound: "CNS(=O)(=O)c1ccc2c(-c3nc(N[C@H]4CCCNC4)ncc3C(F)(F)F)c[nH]c2c1"
  IC50: "0.2 to 5 µM"
- compound: "COCCN1CCC[C@H](Nc2ncc(Cl)c(-c3c[nH]c4ccccc34)n2)C1"
  IC50: "0.2 to 5 µM"
- compound: "N#Cc1ccc2c(-c3nc(N[C@H]4CCCNC4)ncc3OC(F)F)c[nH]c2c1"
  IC50: "> 5 µM"
- compound: "O=S1(=O)CCn2cc(-c3nc(N[C@H]4CCCNC4)ncc3C(F)(F)F)c3cccc1c32"
  IC50: "> 5 µM"
- compound: "O=C(c1ccc2c(-c3nc(N[C@H]4CCCNC4)ncc3C(F)(F)F)c[nH]c2c1)N1C[C@@H](O)C(F)(F)C1"
  IC50: "0.2 to 5 µM"
- compound: "FC(F)(F)c1cnc(N[C@H]2CCCNC2)nc1-c1n[nH]c2ccccc12"
  IC50: "0.02 to 0.2 µM"
- compound: "CC1(C)CNC[C@@H](Nc2ncc(C(F)(F)F)c(-c3c[nH]c4ccccc34)n2)C1"
  IC50: "0.02 to 0.2 µM"
- compound: "CCc1cnc(NC2CCCNC2)nc1-c1c[nH]c2c(F)cccc12 (stereo not shown)"
  IC50: "0.2 to 5 µM"
- compound: "Cc1c(-c2ccc3c(-c4nc(N[C@H]5CCCNC5)ncc4C(F)(F)F)c[nH]c3c2)cnn1C"
  IC50: "0.2 to 5 µM"
